This collection of values is drawn from the supplement of paper PMC12783771.

B1: library; a variant is named by its letters at X, in order (parent)
chain: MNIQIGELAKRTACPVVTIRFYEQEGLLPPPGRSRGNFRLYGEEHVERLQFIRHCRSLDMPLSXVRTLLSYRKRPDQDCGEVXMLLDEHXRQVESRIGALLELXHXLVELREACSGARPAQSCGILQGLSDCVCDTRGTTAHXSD

# Variants of: B1
# measurement.description: sfGFP reporter fluorescence (15 h) (µM FITC); higher = stronger transcriptional activation
# condition: library round: Round 3b; ligand: 1 µM Pb
Using sfGFP reporter fluorescence as the sorting value, the categories are low end: < 0.1; middle: ≥ 0.1 and < 0.4; high end: ≥ 0.4

-- ask Lab note: sort KFITER into the matching sfGFP reporter fluorescence band.
-- reply high end

-- ask Lab note: sort KIITER into the matching sfGFP reporter fluorescence band.
-- reply middle

-- ask Lab note: sort KIATHT into the matching sfGFP reporter fluorescence band.
-- reply high end

-- ask Lab note: sort KFIVHT into the matching sfGFP reporter fluorescence band.
-- reply high end

-- ask Lab note: sort KIAKAR into the matching sfGFP reporter fluorescence band.
-- reply high end

-- ask Lab note: sort KIATAR into the matching sfGFP reporter fluorescence band.
-- reply high end

-- ask Lab note: sort DFITAT into the matching sfGFP reporter fluorescence band.
-- reply low end

-- ask Lab note: sort KFATAP into the matching sfGFP reporter fluorescence band.
-- reply middle

-- ask Lab note: sort KIAVHR into the matching sfGFP reporter fluorescence band.
-- reply high end

-- ask Lab note: sort DNAVAT into the matching sfGFP reporter fluorescence band.
-- reply low end

-- ask Lab note: sort KIATHP into the matching sfGFP reporter fluorescence band.
-- reply high end

-- ask Lab note: sort KIIVET into the matching sfGFP reporter fluorescence band.
-- reply middle

-- ask Lab note: sort KFITAT into the matching sfGFP reporter fluorescence band.
-- reply middle

-- ask Lab note: sort KNATAR into the matching sfGFP reporter fluorescence band.
-- reply middle

-- ask Lab note: sort KIAVER into the matching sfGFP reporter fluorescence band.
-- reply high end

-- ask Lab note: sort DIATAR into the matching sfGFP reporter fluorescence band.
-- reply low end

-- ask Lab note: sort KIIKAT into the matching sfGFP reporter fluorescence band.
-- reply middle

-- ask Lab note: sort KIAVAT into the matching sfGFP reporter fluorescence band.
-- reply high end

-- ask Lab note: sort KNATER into the matching sfGFP reporter fluorescence band.
-- reply middle

-- ask Lab note: sort DIITAR into the matching sfGFP reporter fluorescence band.
-- reply low end

-- ask Lab note: sort KFATHT into the matching sfGFP reporter fluorescence band.
-- reply high end

-- ask Lab note: sort KFIVER into the matching sfGFP reporter fluorescence band.
-- reply high end

-- ask Lab note: sort KIAVAP into the matching sfGFP reporter fluorescence band.
-- reply high end

-- ask Lab note: sort DIAKET into the matching sfGFP reporter fluorescence band.
-- reply low end

-- ask Lab note: sort KFAKHR into the matching sfGFP reporter fluorescence band.
-- reply high end

-- ask Lab note: sort DFITET into the matching sfGFP reporter fluorescence band.
-- reply low end

-- ask Lab note: sort DFAKAT into the matching sfGFP reporter fluorescence band.
-- reply low end

-- ask Lab note: sort DFATAR into the matching sfGFP reporter fluorescence band.
-- reply low end

-- ask Lab note: sort DIAKER into the matching sfGFP reporter fluorescence band.
-- reply low end

-- ask Lab note: sort DIATAT into the matching sfGFP reporter fluorescence band.
-- reply middle

-- ask Lab note: sort KFAKET into the matching sfGFP reporter fluorescence band.
-- reply high end

-- ask Lab note: sort KFITHT into the matching sfGFP reporter fluorescence band.
-- reply high end

-- ask Lab note: sort DFATET into the matching sfGFP reporter fluorescence band.
-- reply low end

-- ask Lab note: sort KIITEP into the matching sfGFP reporter fluorescence band.
-- reply middle

-- ask Lab note: sort DIAVAP into the matching sfGFP reporter fluorescence band.
-- reply low end

-- ask Lab note: sort DIAKAT into the matching sfGFP reporter fluorescence band.
-- reply low end

-- ask Lab note: sort DFAVAT into the matching sfGFP reporter fluorescence band.
-- reply low end

-- ask Lab note: sort KNIVET into the matching sfGFP reporter fluorescence band.
-- reply high end

-- ask Lab note: sort KIAVAR into the matching sfGFP reporter fluorescence band.
-- reply high end

-- ask Lab note: sort KFAVHP into the matching sfGFP reporter fluorescence band.
-- reply high end

-- ask Lab note: sort DFIVET into the matching sfGFP reporter fluorescence band.
-- reply low end

-- ask Lab note: sort DFATER into the matching sfGFP reporter fluorescence band.
-- reply low end

-- ask Lab note: sort KFAKEP into the matching sfGFP reporter fluorescence band.
-- reply high end

-- ask Lab note: sort DNATET into the matching sfGFP reporter fluorescence band.
-- reply low end

-- ask Lab note: sort KFIKER into the matching sfGFP reporter fluorescence band.
-- reply middle

-- ask Lab note: sort KNATAP into the matching sfGFP reporter fluorescence band.
-- reply middle

-- ask Lab note: sort DFITAR into the matching sfGFP reporter fluorescence band.
-- reply low end

-- ask Lab note: sort KNATHT into the matching sfGFP reporter fluorescence band.
-- reply high end

-- ask Lab note: sort DFATHR into the matching sfGFP reporter fluorescence band.
-- reply low end

-- ask Lab note: sort KFAKER into the matching sfGFP reporter fluorescence band.
-- reply high end

-- ask Lab note: sort KFITET into the matching sfGFP reporter fluorescence band.
-- reply middle

-- ask Lab note: sort KNAVHT into the matching sfGFP reporter fluorescence band.
-- reply middle

-- ask Lab note: sort KNIVER into the matching sfGFP reporter fluorescence band.
-- reply high end

-- ask Lab note: sort DFATAP into the matching sfGFP reporter fluorescence band.
-- reply low end

-- ask Lab note: sort KFATHP into the matching sfGFP reporter fluorescence band.
-- reply high end

-- ask Lab note: sort KFIVET into the matching sfGFP reporter fluorescence band.
-- reply high end

-- ask Lab note: sort DFAVAP into the matching sfGFP reporter fluorescence band.
-- reply low end

-- ask Lab note: sort DFIVER into the matching sfGFP reporter fluorescence band.
-- reply low end

-- ask Lab note: sort KFIKAT into the matching sfGFP reporter fluorescence band.
-- reply middle

-- ask Lab note: sort DFATAT into the matching sfGFP reporter fluorescence band.
-- reply low end

-- ask Lab note: sort KIAVHP into the matching sfGFP reporter fluorescence band.
-- reply high end

-- ask Lab note: sort DIAVEP into the matching sfGFP reporter fluorescence band.
-- reply low end

-- ask Lab note: sort DFAVHR into the matching sfGFP reporter fluorescence band.
-- reply low end

-- ask Lab note: sort KFAVAT into the matching sfGFP reporter fluorescence band.
-- reply middle

-- ask Lab note: sort DFAKAR into the matching sfGFP reporter fluorescence band.
-- reply low end

-- ask Lab note: sort KIAKAP into the matching sfGFP reporter fluorescence band.
-- reply high end

-- ask Lab note: sort KNITAR into the matching sfGFP reporter fluorescence band.
-- reply middle

-- ask Lab note: sort KIATAP into the matching sfGFP reporter fluorescence band.
-- reply high end

-- ask Lab note: sort KFAKAP into the matching sfGFP reporter fluorescence band.
-- reply high end

-- ask Lab note: sort KNITET into the matching sfGFP reporter fluorescence band.
-- reply middle

-- ask Lab note: sort KFATAR into the matching sfGFP reporter fluorescence band.
-- reply high end

-- ask Lab note: sort KNIVAT into the matching sfGFP reporter fluorescence band.
-- reply high end

-- ask Lab note: sort DFATEP into the matching sfGFP reporter fluorescence band.
-- reply low end

-- ask Lab note: sort KFAVHR into the matching sfGFP reporter fluorescence band.
-- reply high end

-- ask Lab note: sort KNITER into the matching sfGFP reporter fluorescence band.
-- reply middle

-- ask Lab note: sort KIIKET into the matching sfGFP reporter fluorescence band.
-- reply middle

-- ask Lab note: sort KIATET into the matching sfGFP reporter fluorescence band.
-- reply high end

-- ask Lab note: sort KFITEP into the matching sfGFP reporter fluorescence band.
-- reply middle

-- ask Lab note: sort DFAVAR into the matching sfGFP reporter fluorescence band.
-- reply low end

-- ask Lab note: sort KIAKER into the matching sfGFP reporter fluorescence band.
-- reply high end

-- ask Lab note: sort DIATET into the matching sfGFP reporter fluorescence band.
-- reply low end

-- ask Lab note: sort KFIKET into the matching sfGFP reporter fluorescence band.
-- reply middle

-- ask Lab note: sort DFAKET into the matching sfGFP reporter fluorescence band.
-- reply low end

-- ask Lab note: sort KIAKET into the matching sfGFP reporter fluorescence band.
-- reply high end

-- ask Lab note: sort KFATAT into the matching sfGFP reporter fluorescence band.
-- reply high end
